system: HBV; experiment: HBV inhibition assay: anti-HBV activity in vitro in HepG2.2.15 cells (extracellular HBV DNA by qPCR); format: cell-based; details: Hepatitis B virus, 120 h, five days after compound treatment, extracellular HBV DNA in culture supernatant by qPCR, concentration at which HBV replication is inhibited by 50%
assay.metric: EC50 (µM)
# unit: µM | format: bare number

compound	units.label	EC50
C[C@H]1CN(C(=O)C2CC(=O)N(c3cnn4c3CN(C(=O)Nc3cc(F)c(F)c(F)c3)[C@@H](C)C4)C2)CCO1 (stereo partly shown) [Example 395]	µM	0.088
C[C@H]1Cn2ncc(N3CC(c4cnco4)CC3=O)c2CN1C(=O)Nc1cc(F)c(F)c(F)c1 (stereo partly shown) [Example 247]	µM	0.014

Exercise: Item under review: C[C@H]1Cn2ncc(N3CCOCC3=O)c2CN1C(=O)Nc1cc(F)c(F)c(Cl)c1 [Example 235] . Reported EC50?
Solution: 0.039

Exercise: And CC1Cn2ncc(-c3ccc(F)cc3F)c2CN1C(=O)Nc1ccc(F)c(C#N)c1 (stereo not shown) [Example 85] ?
Solution: 0.011

Exercise: And O=C(Nc1ccc(F)c(Cl)c1)N1CCn2cnc(-c3ccc(F)cc3F)c2C1 [Example 135] ?
Solution: 0.023

Exercise: And CO[C@@H]1CC(=O)N(c2cnn3c2CN(C(=O)Nc2cc(F)c(F)c(F)c2)[C@@H](C)C3)C1 [Example 379] ?
Solution: 0.038

Exercise: And C#Cc1cc(NC(=O)N2CCn3cnc(-c4ccc(F)cc4F)c3C2)ccc1F [Example 134] ?
Solution: 0.085

Exercise: And C[C@H]1Cn2ncc(N3C[C@@H](c4cnco4)OCC3=O)c2CN1C(=O)Nc1cc(F)c(F)c(F)c1 [Example 407] ?
Solution: 0.024

Exercise: And Cc1ncc(C2CC(=O)N(c3cnn4c3CN(C(=O)Nc3cc(F)c(F)c(F)c3)[C@@H](C)C4)C2)o1 (stereo partly shown) [Example 349] ?
Solution: 0.015

---

test system: HBV; assay: HBV inhibition assay: anti-HBV activity in vitro in HepG2.2.15 cells (extracellular HBV DNA by qPCR); type: cell-based; settings: Hepatitis B virus, 120 h, five days after compound treatment, extracellular HBV DNA in culture supernatant by qPCR, concentration at which HBV replication is inhibited by 50%
assay.metric: pEC50
Convention used: pEC50 is expressed as -log10 of the molar concentration.

Some molecules with known pEC50 results, for comparison:
molecule	target	pEC50
C[C@H]1Cn2ncc(N3CC(C(=O)Nc4ncco4)CC3=O)c2CN1C(=O)Nc1cc(F)c(F)c(F)c1 (stereo partly shown)	HBV	7.06
C[C@H]1Cn2ncc(N3C[C@@H](Oc4ncccn4)[C@H](O)C3=O)c2CN1C(=O)Nc1cc(F)c(F)c(F)c1	HBV	8.22
C[C@H]1Cn2ncc(N3C[C@H](Oc4ncccn4)CC3=O)c2CN1C(=O)Nc1cc(F)c(F)c(F)c1	HBV	7.60

Exercise: Item under review: C#Cc1cc(NC(=O)N2CCn3ncc(-c4ccc(F)cc4F)c3C2)ccc1F . Reported pEC50?
Solution: 7.34

---

Recorded pEC50, one value per entry.
system: HBV; experiment: HBV inhibition assay: anti-HBV activity in vitro in HepG2.2.15 cells (extracellular HBV DNA by qPCR); assay type: cell-based; conditions: Hepatitis B virus, 120 h, five days after compound treatment, extracellular HBV DNA in culture supernatant by qPCR, concentration at which HBV replication is inhibited by 50%
Convention used: pEC50 is expressed as -log10 of the molar concentration.

Some compounds with known pEC50 results, for comparison:
compound	measured
C[C@H]1Cn2ncc(N3CCNC3=O)c2CN1C(=O)Nc1cc(F)c(F)c(C(F)F)c1	7.66
Cc1nc(C2CC(=O)N(c3cnn4c3CN(C(=O)Nc3cc(F)c(F)c(F)c3)[C@@H](C)C4)C2)co1 (stereo partly drawn)	7.82
N#Cc1cc(NC(=O)N2CCn3cnc(-c4ccc(F)cc4F)c3C2)ccc1F	7.25

Exercise: Test system HBV; read-out pEC50; what value for C[C@H]1Cn2ncc(N3CC(Cn4cccn4)CC3=O)c2CN1C(=O)Nc1cc(F)c(F)c(F)c1 (stereo partly drawn) ?
Solution: 7.02

Exercise: And C[C@H]1Cn2ncc(N3CC4(CC4)CC3=O)c2CN1C(=O)Nc1cc(F)c(F)c(F)c1 ?
Solution: 7.82
